Test system: KM12
procedure_text: NCI tumour cell line growth inhibition, 48 h
Calls of active or inactive are those of the source. No stated cut-off is given here; in the data, active = GI50 up to about 1.1 µM and inactive = higher.
Outcomes you can answer with include only these: active, inactive

Use the examples below as a reference point.
INSERT INTO assay_data (molecule, assigned_label) VALUES
  ('COc1cc2c(Cc3cc(OCc4ccccc4)ccc3N)nccc2c(OC)c1OC', 'inactive'),
  ('C(=N\c1nc2cc3sc(/N=C/c4ccccc4)nc3cc2s1)/c1ccccc1', 'inactive'),
  ('OC(c1ccccc1)(c1ccccc1)c1ccncc1', 'inactive'),
  ('O=C(CNC(=O)OCc1ccccc1)NCCCCC(NC(=O)OCc1ccccc1)C(=O)O (stereo not given)', 'inactive'),
  ('COc1cc(C2c3cc4c(cc3[C@@H](NCCN3CCCCC3)C3COC(=O)[C@H]23)OCO4)cc(OC)c1O (stereo not given in full)', 'active'),
  ('CCCn1c(SCCSc2c3ccccc3c(-c3nc(F)nc(F)n3)n2CCC)c2ccccc2c1-c1nc(F)nc(F)n1', 'inactive'),
  ('CN(C)CN(C)c1nc(N(C)C)nc(N(C)C)n1', 'inactive'),
  ('COc1ccc(C)cc(O)c1=O', 'inactive');

IN: Could you check what this test reported for C/C(C=O)=C/[C@@]1(C)O[C@@H](C)[C@@](C)(O)[C@@H]1O ?
OUT: inactive

IN: Could you check what this test reported for CSC1=NC=CCN1C ?
OUT: inactive

----------
Tested on: COLO 205
procedure_text: NCI tumour cell line growth inhibition, 48 h
Activity calls are given as the source filed them. Rule as the data show it: active = GI50 up to about 1.1 µM and inactive = higher.
Outcomes you can answer with include only these: yes (1) = active, no (0) = inactive

INSERT INTO results (compound, assigned_label) VALUES
  ('O=C1CC(Nc2ccccc2)c2c(Cl)sc(Cl)c21 (centres undefined)', 'yes (1)'),
  ('CN1C/C(=C\C=C\c2ccccc2)C(=O)/C(=C/C=C/c2ccccc2)C1', 'no (0)'),
  ('CS(=O)(=O)c1cc(=O)c2ccccc2s1', 'no (0)');

IN: Could you check what this test reported for COc1ccc(-c2nnc3nc4ccccc4n3c2O)cc1 ?
OUT: no (0)
